B1: glmS ribozyme (parent)
chain: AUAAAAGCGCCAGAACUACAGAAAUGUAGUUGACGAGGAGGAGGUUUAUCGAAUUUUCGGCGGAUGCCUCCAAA

- Variants of: B1
- experimentalProtocol: self-cleavage kobs at 640 uM GlcN6P; higher = faster cleavage; RNA array
- setupConditions: with glucosamine-6-phosphate
Fewer inactive variants are shown than the library holds.
reportedMetric: self-cleavage kobs at 640 uM GlcN6P (s⁻¹)
Please reply with the bare figure in s⁻¹ and do not write the unit itself.

Solved entries (count: 5):
# variantNotation, self-cleavage kobs at 640 uM GlcN6P (s⁻¹)
data = [
    ("C16A C70U C71A", 0.00012),
    ("A12C G26U", 0.00546),
    ("U45A U55C", 0.00526),
    ("G29A C70A", "4.17e-05"),
    ("A15G G66A", 0.00506),
]

(Q) Could you share which self-cleavage kobs at 640 uM GlcN6P value was measured for G29A A39U A42U ?
(A) 0.000148

(Q) What does the data say about its self-cleavage kobs at 640 uM GlcN6P? Entry: C50G U65G U69A
(A) 0.000101

(Q) Param item = U56G C70A ; retrieve measured self-cleavage kobs at 640 uM GlcN6P.
(A) 7.43e-05
